tested on: TDP-43 aggregation in PC12 cells stably expressing GFP-tagged mutant TDP-43 (TDP-43^Q33IK::eGFP); assay: In vitro efficacy assay: inhibition of TDP-43 inclusions, concentration-response, fluorescence microscopy; format: cell-based; settings: Rattus norvegicus, PC-12, PC12 cells, 1 hour pre-treatment, 15 μM sodium arsenite for 23 hours, 10-point dose response curve
measured_property: IC50

Example entries and their recorded answers appear below.
molecule	measured_property	measurement
CCN(C(=O)c1cc2ccccc2[nH]1)[C@H]1CCC[C@@H](NCc2cccnc2)C1	IC50	0.1 to 0.5 µM
CCN(C(=O)c1cc2cc(C#N)ccc2[nH]1)[C@H]1CCC[C@@H](NCc2cc3ccccc3o2)C1	IC50	< 0.1 µM
CCN(C(=O)c1cc2ccccc2[nH]1)[C@H]1CCC[C@@H](N2CCc3ccccc3C2)C1	IC50	0.5 to 2 µM

query: Given the molecule CCN(C(=O)c1nc2ccccc2[nH]1)[C@H]1CCC[C@@H](NCc2ccc3ocnc3c2)C1 , what is its reported IC50?
result: < 0.1 µM

query: Quick one: CCN(C(=O)c1cc2cc(C#N)ccc2[nH]1)[C@H]1CCC[C@@H](NCc2ccccc2)C1
result: < 0.1 µM

query: Field entry: CCN(C(=O)c1cc2ccccc2[nH]1)[C@H]1CCC[C@@H](NCc2cc3cc(F)ccc3o2)C1
result: < 0.1 µM

query: Ok, now CCN(C(=O)c1cc2ccccc2[nH]1)[C@H]1CCC[C@@H](NCc2cnoc2)C1
result: 0.1 to 0.5 µM

query: Quick one: CCN(C(=O)c1nc2cc(C3CC3)ccc2[nH]1)[C@H]1CCC[C@@H](NCc2ccccc2)C1
result: < 0.1 µM

query: Please give the result for CCN(C(=O)c1cc2ccccc2[nH]1)C1CCC[C@H](N[C@H]2CCc3ccccc32)C1 (stereo partly drawn) too.
result: > 2 µM

query: Please do the same for CCN(C(=O)c1cc2ccccc2[nH]1)C1CCC[C@@H](NCc2ccccc2)C1 (stereo partly drawn) as well.
result: < 0.1 µM

query: Same question, O=C(c1cc2ccccc2[nH]1)N(CC(F)(F)F)[C@H]1CCC[C@@H](NCC2CCOCC2)C1 this time
result: > 2 µM

query: Another: CCN(C(=O)c1cc2ccccc2[nH]1)[C@H]1CCC[C@@H](NCc2cccc(S(C)(=O)=O)c2)C1
result: < 0.1 µM

query: Try CCN(C(=O)c1nc2ccccc2[nH]1)[C@H]1CCC[C@@H](NCc2nnc(C3CC3)o2)C1 next.
result: 0.1 to 0.5 µM

query: Moving on to the next molecule: CCN(C(=O)c1nc2cc(S(C)(=O)=O)ccc2[nH]1)[C@H]1CCC[C@@H](NCc2ccccc2)C1
result: < 0.1 µM

query: Also need CCN(C(=O)c1nc2ccccc2[nH]1)[C@H]1CCC[C@@H](NCc2cccc(OC)c2)C1 , thanks.
result: < 0.1 µM

query: Check CCN(C(=O)c1cc2ncccc2[nH]1)[C@H]1CCC[C@@H](NCc2nnc(C)s2)C1 too.
result: > 2 µM

query: And what about the molecule O=C(c1cc2ccccc2[nH]1)N(CC(F)(F)F)[C@H]1CCC[C@H](NCC2CCOCC2)C1 ?
result: 0.5 to 2 µM

query: Let us now turn to CCN(C(=O)c1cc2ccccc2[nH]1)C1CCC[C@H](NCc2ccc(F)cc2)C1 (stereo partly drawn)
result: 0.1 to 0.5 µM

query: Let us now turn to CCN(C(=O)c1cc2ccccc2[nH]1)[C@H]1CCC[C@@H](N[C@@H]2CCc3cc(F)ccc32)C1
result: 0.1 to 0.5 µM

query: Can you check CCN(C(=O)c1cc2ncccc2[nH]1)[C@H]1CCC[C@@H](Nc2ccccc2)C1 next?
result: > 2 µM

query: // next record CCN(C(=O)c1nc2ccccc2[nH]1)[C@H]1CCC[C@@H](NCc2ccc3ncoc3c2)C1
result: < 0.1 µM

query: Would you mind doing CCN(C(=O)c1cc2ccccc2[nH]1)[C@H]1CCC[C@@H](N[C@H](c2ccccc2)C(F)(F)F)C1 as well?
result: 0.5 to 2 µM

query: And for CCN(C(=O)c1cc2ccccc2[nH]1)[C@H]1CCC[C@@H](N[C@@H](c2ccccc2)C(F)(F)F)C1 ?
result: > 2 µM

query: Another molecule: CCN(C(=O)c1cc2c([nH]1)CCOC2)[C@H]1CCC[C@@H](NCc2ccccc2)C1
result: 0.1 to 0.5 µM

query: What do you have for CCN(C(=O)c1cc2ncccc2[nH]1)[C@H]1CCC[C@@H](NCc2cc(C3CC3)no2)C1 ?
result: < 0.1 µM
